Biological target: Tyrosine-protein kinase BTK (Homo sapiens, UniProt Q06187)
Sequence (Q06187 whole entry): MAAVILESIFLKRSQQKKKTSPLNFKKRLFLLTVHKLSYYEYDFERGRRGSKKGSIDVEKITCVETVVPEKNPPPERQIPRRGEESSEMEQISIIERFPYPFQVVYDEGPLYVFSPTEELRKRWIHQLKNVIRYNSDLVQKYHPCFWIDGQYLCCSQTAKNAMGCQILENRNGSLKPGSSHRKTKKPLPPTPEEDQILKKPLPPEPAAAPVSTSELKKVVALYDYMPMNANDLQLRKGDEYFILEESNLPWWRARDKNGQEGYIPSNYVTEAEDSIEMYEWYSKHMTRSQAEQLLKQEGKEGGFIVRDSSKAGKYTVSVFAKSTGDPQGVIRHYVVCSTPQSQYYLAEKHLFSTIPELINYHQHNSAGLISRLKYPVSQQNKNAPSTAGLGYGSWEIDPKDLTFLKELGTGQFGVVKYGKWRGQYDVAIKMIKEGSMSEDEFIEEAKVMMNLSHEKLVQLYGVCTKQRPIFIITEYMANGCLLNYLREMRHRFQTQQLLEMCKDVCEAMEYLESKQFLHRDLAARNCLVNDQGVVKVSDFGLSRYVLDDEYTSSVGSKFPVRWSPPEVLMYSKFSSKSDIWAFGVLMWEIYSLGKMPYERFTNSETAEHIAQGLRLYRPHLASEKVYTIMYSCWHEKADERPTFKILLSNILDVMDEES
Experiment: Inhibition of human recombinant full length BTK expressed in baculovirus in Sf9 insect cells using Poly (4:1 Glu, Tyr) as substrate incubated for 1 hr by ADP-Glo assay
measured-endpoint: pIC50
Keep it numeric: pIC50 is minus log10 of the concentration in mol/L.

Just so you know, measured pIC50 for C=CC(=O)Nc1cccc(Nc2nc(Nc3ccc(OCCSC(=S)NCC)cc3)ncc2F)c1 came out at 7.82

The measured pIC50 associated with C=CC(=O)Nc1cccc(Nc2nc(Nc3ccc(OCCSC(=S)NCc4ccccn4)cc3)ncc2F)c1 reads 7.73

Sample C=CC(=O)Nc1cccc(Nc2nc(Nc3ccc(OCCCSC(=S)N(C)C)cc3)ncc2F)c1 ; pIC50 observed: 7.86

The measured pIC50 associated with C=CCNC(=S)SCCOc1ccc(Nc2ncc(F)c(Nc3cccc(NC(=O)C=C)c3)n2)cc1 reads 7.04

The recorded pIC50 for entry C=CC(=O)Nc1cccc(Nc2nc(Nc3ccc(OCCSC(=S)NCc4cccnc4)cc3)ncc2F)c1 equals 8.94

Lab note: measured pIC50 of C=CC(=O)Nc1cccc(Nc2nc(Nc3ccc(OCCSC(=S)N4CCN(C)CC4)cc3)ncc2F)c1 was 7.45

Form field pIC50, entry C=CC(=O)Nc1cccc(Nc2nc(Nc3ccc(OCCCCSC(=S)N4CCN(C(C)C)CC4)cc3)ncc2F)c1 : 6.88
